Molecular target: T1, IL-18 binding protein (IL-18BP) (UniProt O95998 31-194); also: unit not given here
T1 sequence (looked up): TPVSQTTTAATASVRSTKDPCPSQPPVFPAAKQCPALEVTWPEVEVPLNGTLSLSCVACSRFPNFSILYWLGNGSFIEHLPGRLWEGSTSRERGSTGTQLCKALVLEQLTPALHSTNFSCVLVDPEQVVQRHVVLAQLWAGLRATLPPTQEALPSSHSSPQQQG
Experiment: cell-based or functional assay
Measured quantity: Activity, +100 nM BP, DF-5000003
Quick one: just the number, no unit, thanks!

The examples below pair each entry with its known result.
Binder	Activity, +100 nM BP, DF-5000003
IL-18 variant G3I, E6D, D54A, S55F, N91Y, R104H (ligand) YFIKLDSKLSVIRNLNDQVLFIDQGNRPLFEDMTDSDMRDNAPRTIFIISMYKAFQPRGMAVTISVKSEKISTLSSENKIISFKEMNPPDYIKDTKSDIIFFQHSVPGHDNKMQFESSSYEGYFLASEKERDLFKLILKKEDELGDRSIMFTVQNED	1.45
IL-18 variant G3P, E6V, K53A, D54W, S55P, T63S, N91L, R104K (ligand) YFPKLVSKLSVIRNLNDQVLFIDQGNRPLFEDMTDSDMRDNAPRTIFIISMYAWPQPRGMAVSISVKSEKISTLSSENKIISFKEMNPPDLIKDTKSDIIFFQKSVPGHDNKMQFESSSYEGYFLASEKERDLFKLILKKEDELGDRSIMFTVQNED	0.57
IL-18 variant G3S, E6H, K53Y, D54P, S55Y, T63S, N91A, R104S (ligand) YFSKLHSKLSVIRNLNDQVLFIDQGNRPLFEDMTDSDMRDNAPRTIFIISMYYPYQPRGMAVSISVKSEKISTLSSENKIISFKEMNPPDAIKDTKSDIIFFQSSVPGHDNKMQFESSSYEGYFLASEKERDLFKLILKKEDELGDRSIMFTVQNED	0.08
IL-18 variant E6N, D54N, S55N, N91H, R104P (ligand) YFGKLNSKLSVIRNLNDQVLFIDQGNRPLFEDMTDSDMRDNAPRTIFIISMYKNNQPRGMAVTISVKSEKISTLSSENKIISFKEMNPPDHIKDTKSDIIFFQPSVPGHDNKMQFESSSYEGYFLASEKERDLFKLILKKEDELGDRSIMFTVQNED	0.08

### Prompt What value of measured Activity, +100 nM BP, DF-5000003 is listed for IL-18 variant G3S, E6Q, K53N, D54T, S55N, T63A, I80T, N91S (ligand) YFSKLQSKLSVIRNLNDQVLFIDQGNRPLFEDMTDSDMRDNAPRTIFIISMYNTNQPRGMAVAISVKSEKISTLSSENKTISFKEMNPPDSIKDTKSDIIFFQRSVPGHDNKMQFESSSYEGYFLASEKERDLFKLILKKEDELGDRSIMFTVQNED ?
### Response 0.11

### Prompt Given the binder IL-18 variant G3S, E6Q, K53S, D54Y, S55H, N91L, R104Q (ligand) YFSKLQSKLSVIRNLNDQVLFIDQGNRPLFEDMTDSDMRDNAPRTIFIISMYSYHQPRGMAVTISVKSEKISTLSSENKIISFKEMNPPDLIKDTKSDIIFFQQSVPGHDNKMQFESSSYEGYFLASEKERDLFKLILKKEDELGDRSIMFTVQNED , what is its reported Activity, +100 nM BP, DF-5000003?
### Response 0.2

### Prompt Could you share which Activity, +100 nM BP, DF-5000003 value was measured for IL-18 variant G3P, E6R, D54W, S55Q, T63S, N91T, R104H (ligand) YFPKLRSKLSVIRNLNDQVLFIDQGNRPLFEDMTDSDMRDNAPRTIFIISMYKWQQPRGMAVSISVKSEKISTLSSENKIISFKEMNPPDTIKDTKSDIIFFQHSVPGHDNKMQFESSSYEGYFLASEKERDLFKLILKKEDELGDRSIMFTVQNED ?
### Response 0.26
